Tested on: HCT-15 colon
measurement.notes: NCI-60 one-dose screen, 48 h (100 = growth as untreated, 0 = no growth, -100 = all killed)
conditions: 10 µM unless noted
Compounds without any hit were thinned out: in the full panel of roughly 83,000, 20% have a hit.
Rule: growth of 70% or more gives TRUE; anything lower gives FALSE.

compound | experimental.target | category.label
CC(C)c1ccc2occ(C=C3C(=O)NC(=O)NC3=O)c(=O)c2c1 | HCT-15 colon | TRUE

Q: Is reported growth greater than or equal to 70% here: `COc1ccc2c(c1)[nH]c(=O)c1c3cc(OC)ccc3cn21`
A: FALSE

Q: Say whether `CC(C)(C)n1cc(-c2ccnc(NCCNS(=O)(=O)c3ccc(F)cc3)c2)c(-c2cccc(O)c2)n1` shows growth of 70% or more.
A: FALSE

Q: Textbook exercise: given the entry `CN(C)CCOC(=O)Nc1ccccc1Cl` , state whether its growth is greater than or equal to 70%.
A: TRUE

Q: Is growth for OC(c1cc2cc(Br)ccc2c2cc(Br)ccc12)C1CCCCN1 (stereo not given) at or above 70%?
A: FALSE

Q: # bool: growth of `O=C(Nc1cccc(-n2cc(-c3ccncc3)c(-c3ccc(Cl)c(O)c3)n2)c1)Nc1cc(C(F)(F)F)cc(C(F)(F)F)c1` >= 70%
A: FALSE

Q: Say whether `CCOC(=O)c1c(NS(=O)(=O)c2ccc(C)cc2)sc2c1CCC1(C2)OCCO1` shows growth of 70% or more.
A: TRUE

Q: Kindly determine if growth recorded for `COc1ccc(-c2nc(/C=N/Nc3cc(C)nc4ccc(Br)cc34)c(C)o2)cc1` is above or exactly 70%.
A: FALSE

Q: Please indicate if the recorded growth for `CC(C)(C)n1cc(-c2ccnc(NCCCNS(=O)(=O)c3ccc(Cl)cc3)c2)c(-c2cccc(O)c2)n1` meets or exceeds 70%.
A: FALSE
